What growth was measured for each of the following?
Tested on: SF-539 CNS
Experiment: NCI-60 one-dose screen, 48 h (100 = growth as untreated, 0 = no growth, -100 = all killed)
Conditions: 10 µM unless noted
This is part of a sample that, as a whole, favours compounds with a hit. Of some 83,000 tested, about 20% had one in any assay.
The reply should contain only the number, in %.

Prompt line: Name the reported growth value associated with the compound CC[C@]12C=CCN3CC[C@@]4(c5ccc(OC)cc5N(C)[C@H]4[C@@](O)(C(=O)OC)[C@@H]1OC(=O)CCC(=O)N[C@@H](Cc1c[nH]c4ccccc14)C(=O)OC)[C@@H]32
Response line: 102

Prompt line: Which growth value belongs to O=C(CN1CCN(c2cc3c(cc2F)c(=O)c(C(=O)N/N=C/c2ccccc2)cn3C2CC2)CC1)N/N=C\c1ccccc1 ?
Response line: 76.2

Prompt line: # growth lookup, item CCOC(=O)N1CCN(c2nc(Nc3cc(C)[nH]n3)c3ccccc3n2)CC1
Response line: 46.8

Prompt line: Which value of growth has been reported for CC[C@H](Nc1nc(N)nc(C)c1C#N)c1nc2cccc(NCc3ccc(C(=O)NO)cc3)c2c(=O)n1-c1ccccc1 in the records?
Response line: -18.8

Prompt line: Could you tell me which growth is on file for CN1CCN(Cc2ccc(NC(=O)c3[nH]ncc3Nc3ccnc4ccsc34)cc2)CC1 ?
Response line: 2.32

Prompt line: Could you tell me which growth is on file for O=c1c(/C=C/c2ccco2)nnc(SCCN2CCOCC2)n1/N=C/c1ccc([N+](=O)[O-])cc1 ?
Response line: 94

Prompt line: Looking for the measured growth of Cc1ccc(C2CC3c4ccccc4C2C2CCCCN32)cc1 (configuration not stated) , can you help?
Response line: 91.4

Prompt line: Query: growth; subject: O=C(N/N=C/c1ccc(O)cc1O)c1cccnc1
Response line: 29.5

Prompt line: Would you kindly share the measured growth for CCC(C)[C@@H]1NC(=O)[C@@H]2CCCN2C(=O)[C@H](Cc2ccccc2)NC(=O)[C@@H]2CCCN2C(=O)[C@H](Cc2ccccc2)NC(=O)[C@@H]2CCCN2C(=O)[C@H](Cc2ccccc2)NC1=O (some centres not stated) ?
Response line: 109

Prompt line: What value of growth has been recorded for this entry: CC(=O)O[C@H]1CC[C@]2(C)[C@H]3CC[C@@H]4[C@H]5[C@H](C(C)C)CC[C@]5(C(=O)OCC(CO)(CO)N=C(N)N)CC[C@@]4(C)[C@]3(C)CC[C@H]2C1(C)C
Response line: 86.4

Prompt line: Recorded growth of C=C1CC2(OC1=O)C(=O)N(CCCCCCCN1C(=O)C3(CC(=C)C(=O)O3)c3ccccc31)c1ccccc12 (configuration not stated) , please.
Response line: 16.9

Prompt line: What does the data say about its growth? Entry: COc1ccc(/C=C2\CN(C(=O)CCN3CCC(=NO)CC3)C/C(=C\c3ccc(OC)cc3)C2=O)cc1
Response line: -25.5

Prompt line: // lookup growth for O=C1Nc2ccc(Br)cc2C12CC(c1ccccc1)=NN2 (configuration not stated)
Response line: 32.9

Prompt line: Record request: growth value, item O=C1C(Cl)=C(Cl)C(=O)c2c1nc1n2CCCC1
Response line: 99.9

Prompt line: Fill blank: measured growth of the compound O=C(/C=C/c1ccc(B(O)O)cc1)/C=C/c1ccc(B(O)O)cc1 is ____.
Response line: 21.6

Prompt line: So what does the record say about growth for CN1CCN(Cc2ccc(NC(=O)c3cncc(C#Cc4cnc(N)c5cccnc45)c3)cc2C(F)(F)F)CC1 ?
Response line: -28.3

Prompt line: // query growth value for entry c1ccc(Sc2ncnc3ccccc23)cc1
Response line: 89

Source of measurements: PubChem BioAssay (NCI)
